I'd appreciate it if you could supply IC50 values for the items below.
testedTarget: Prostaglandin G/H synthase 2 (Homo sapiens)
Sequence (P35354 whole entry): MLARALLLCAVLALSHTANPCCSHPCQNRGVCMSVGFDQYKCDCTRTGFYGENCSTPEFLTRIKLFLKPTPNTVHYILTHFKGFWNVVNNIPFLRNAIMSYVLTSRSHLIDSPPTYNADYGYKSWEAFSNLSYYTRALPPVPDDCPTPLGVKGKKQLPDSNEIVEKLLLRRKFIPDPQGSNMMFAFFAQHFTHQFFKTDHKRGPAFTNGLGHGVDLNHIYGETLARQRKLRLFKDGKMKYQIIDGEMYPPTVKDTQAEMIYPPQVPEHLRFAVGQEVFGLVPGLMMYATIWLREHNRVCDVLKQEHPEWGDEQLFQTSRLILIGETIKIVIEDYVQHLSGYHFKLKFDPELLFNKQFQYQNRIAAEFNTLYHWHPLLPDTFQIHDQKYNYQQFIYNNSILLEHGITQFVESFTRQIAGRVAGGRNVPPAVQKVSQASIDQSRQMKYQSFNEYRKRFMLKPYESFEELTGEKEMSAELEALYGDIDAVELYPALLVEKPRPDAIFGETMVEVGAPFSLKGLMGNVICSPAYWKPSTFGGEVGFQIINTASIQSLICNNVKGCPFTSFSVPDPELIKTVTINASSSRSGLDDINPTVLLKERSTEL
Could you give me the number in nM? Just the number is fine.

**Query** Query: IC50; subject: O=C(COc1cc(O)c2c(=O)cc(-c3ccccc3)oc2c1)OCc1cc(-c2cccc(Cl)c2)n(-c2ccc(Cl)cc2)n1
**Result** 422

**Query** Dear colleague, I am looking for the recorded IC50 of the following molecule: Cc1ccc(-c2cc(COC(=O)COc3cc(O)c4c(=O)cc(-c5ccccc5)oc4c3)nn2-c2ccccc2)cc1
**Result** 930

**Query** Dear colleague, I am looking for the recorded IC50 of the following molecule: Cc1ccc(-n2nc(COC(=O)COc3cc(O)c4c(=O)cc(-c5ccccc5)oc4c3)cc2-c2ccc(Br)cc2)cc1
**Result** 1080

**Query** Endpoint output: IC50 of COc1cccc(-c2cc(COC(=O)COc3cc(O)c4c(=O)cc(-c5ccccc5)oc4c3)nn2-c2ccccc2)c1 . Value?
**Result** 1210

----------
Test system: MCF7
assayDetails: Antiproliferative activity against human MCF7 cells after 48 hrs by MTT assay
Format: functional, cell-based
statedConditions: MCF7, 48 h
metric: IC50 (µM)
Just the number in µM, nothing appended.

**Query** Suppose we examine the compound COc1ccc(-c2cc(COC(=O)COc3cc(O)c4c(=O)cc(-c5ccccc5)oc4c3)nn2-c2ccc(C)cc2)cc1 ; what IC50 value has been reported?
**Result** 3.23

**Query** # get_value(readout='IC50', item= Cc1ccc(-n2nc(COC(=O)COc3cc(O)c4c(=O)cc(-c5ccccc5)oc4c3)cc2-c2cccc(C)c2)cc1 )
**Result** 3.25

**Query** Please give the measured IC50 for this compound: O=C(COc1cc(O)c2c(=O)cc(-c3ccccc3)oc2c1)OCc1cc(-c2ccc(Cl)c(Cl)c2)n(-c2ccccc2)n1
**Result** 3.29

**Query** # get_value(readout='IC50', item= O=C(COc1cc(O)c2c(=O)cc(-c3ccccc3)oc2c1)OCc1cc(-c2ccc(C(F)(F)F)cc2)n(-c2ccccc2)n1 )
**Result** 11

----------
System: A549
assayDetails: Antiproliferative activity against human A549 cells after 48 hrs by MTT assay
Assay type: functional, cell-based
statedConditions: A549, 48 h
What pIC50 was measured for each of the following?
# log scale: pIC50 equals minus log10 of the concentration in mol/L

**Query** Given O=C(COc1cc(O)c2c(=O)cc(-c3ccccc3)oc2c1)OCc1cc(-c2ccc(Cl)c(Cl)c2)n(-c2ccccc2)n1 , state its recorded pIC50.
**Result** 5.26

**Query** Which pIC50 is listed for Cc1ccc(-n2nc(COC(=O)COc3cc(O)c4c(=O)cc(-c5ccccc5)oc4c3)cc2-c2ccc(Cl)cc2)cc1 ?
**Result** 5.43

**Query** What value of pIC50 has been recorded for this entry: Cc1cccc(-c2cc(COC(=O)COc3cc(O)c4c(=O)cc(-c5ccccc5)oc4c3)nn2-c2ccc(Cl)cc2)c1
**Result** 4.49

**Query** Fill in the blank: the reported pIC50 of Cc1ccc(-c2cc(COC(=O)COc3cc(O)c4c(=O)cc(-c5ccccc5)oc4c3)nn2-c2ccc(C)cc2)cc1 is ____.
**Result** 5.54

----------
Tested on: MCF7
assayDetails: Antiproliferative activity against human MCF7 cells after 48 hrs by MTT assay
Type: functional, cell-based
statedConditions: MCF7, 48 h
metric: IC50 (µM)
Answer format: numeric, µM implied, no suffix.

**Query** Dear colleague, I am looking for the recorded IC50 of the following compound: O=C(COc1cc(O)c2c(=O)cc(-c3ccccc3)oc2c1)OCc1cc(-c2ccc(Br)cc2)n(-c2ccccc2)n1
**Result** 8.48

**Query** Tell me the measured IC50 of Cc1cccc(-c2cc(COC(=O)COc3cc(O)c4c(=O)cc(-c5ccccc5)oc4c3)nn2-c2ccc(Cl)cc2)c1 , please.
**Result** 23.4

**Query** Report IC50 for Cc1ccc(-n2nc(COC(=O)COc3cc(O)c4c(=O)cc(-c5ccccc5)oc4c3)cc2-c2ccc(F)cc2)cc1 please.
**Result** 17.8

**Query** Which IC50 is listed for Cc1ccc(-c2cc(COC(=O)COc3cc(O)c4c(=O)cc(-c5ccccc5)oc4c3)nn2-c2ccccc2)cc1 ?
**Result** 5.43

**Query** Which IC50 value belongs to O=C(COc1cc(O)c2c(=O)cc(-c3ccccc3)oc2c1)OCc1cc(-c2cccc(C(F)(F)F)c2)n(-c2ccccc2)n1 ?
**Result** 8.01

**Query** Value lookup for IC50; key = Cc1ccc(-n2nc(COC(=O)COc3cc(O)c4c(=O)cc(-c5ccccc5)oc4c3)cc2-c2ccc([N+](=O)[O-])cc2)cc1
**Result** 15.8

**Query** Fill in the blank: the reported IC50 of O=C(COc1cc(O)c2c(=O)cc(-c3ccccc3)oc2c1)OCc1cc(-c2ccc(Cl)c(Cl)c2)n(-c2ccc(Cl)cc2)n1 is ____.
**Result** 12.1

----------
I'd be grateful if you could share measured IC50 for these entries.

**Query** Request body: readout IC50, system Prostaglandin G/H synthase 1 (Homo sapiens), query COc1ccc(-c2cc(COC(=O)COc3cc(O)c4c(=O)cc(-c5ccccc5)oc4c3)nn2-c2ccc(C)cc2)cc1 . Return the value.
**Result** 47.5 µM

**Query** API: value(readout= IC50, system= Prostaglandin G/H synthase 1 (Homo sapiens), query= Cc1ccc(-n2nc(COC(=O)COc3cc(O)c4c(=O)cc(-c5ccccc5)oc4c3)cc2-c2ccc(Cl)c(Cl)c2)cc1 )
**Result** 27.9 µM

**Query** Record lookup: for Prostaglandin G/H synthase 1 (Homo sapiens), what IC50 belongs to Cc1ccc(-n2nc(COC(=O)COc3cc(O)c4c(=O)cc(-c5ccccc5)oc4c3)cc2-c2cccc(Cl)c2)cc1 ?
**Result** 49.6 µM

**Query** # value lookup — system Prostaglandin G/H synthase 1 (Homo sapiens), readout IC50, item Cc1ccc(-n2nc(COC(=O)COc3cc(O)c4c(=O)cc(-c5ccccc5)oc4c3)cc2-c2ccc(C(F)(F)F)cc2)cc1
**Result** 29.7 µM

**Query** Query the reported IC50 for Prostaglandin G/H synthase 1 (Homo sapiens); item: O=C(COc1cc(O)c2c(=O)cc(-c3ccccc3)oc2c1)OCc1cc(-c2ccc(C(F)(F)F)cc2)n(-c2ccccc2)n1
**Result** 32.9 µM

**Query** Any idea what IC50 came out for Cc1ccc(-c2cc(COC(=O)COc3cc(O)c4c(=O)cc(-c5ccccc5)oc4c3)nn2-c2ccc(Cl)cc2)cc1 on Prostaglandin G/H synthase 1 (Homo sapiens)?
**Result** 40.9 µM

**Query** Missing value: IC50, Prostaglandin G/H synthase 1 (Homo sapiens), entry COc1cccc(-c2cc(COC(=O)COc3cc(O)c4c(=O)cc(-c5ccccc5)oc4c3)nn2-c2ccccc2)c1 . Fill in?
**Result** 25.5 µM

----------
Would you kindly list IC50 for each of these compounds?
System: MCF7
assayDetails: Antiproliferative activity against human MCF7 cells after 48 hrs by MTT assay
Format: functional, cell-based
statedConditions: MCF7, 48 h

**Query** Look up IC50 with MCF7 for this compound: Cc1ccc(-n2nc(COC(=O)COc3cc(O)c4c(=O)cc(-c5ccccc5)oc4c3)cc2-c2ccc(Cl)cc2)cc1
**Result** > 100 µM

**Query** # value lookup — system MCF7, readout IC50, item O=C(COc1cc(O)c2c(=O)cc(-c3ccccc3)oc2c1)OCc1cc(-c2ccc(F)cc2)n(-c2ccccc2)n1
**Result** 3.82 µM

**Query** Lab note: need IC50 with MCF7 for entry COc1ccc(-c2cc(COC(=O)COc3cc(O)c4c(=O)cc(-c5ccccc5)oc4c3)nn2-c2ccc(Cl)cc2)cc1 , please look it up.
**Result** > 100 µM

**Query** Field: IC50 (MCF7). Entry: Cc1ccc(-n2nc(COC(=O)COc3cc(O)c4c(=O)cc(-c5ccccc5)oc4c3)cc2-c2ccc(Br)cc2)cc1
**Result** 2.96 µM

**Query** Look up IC50 with MCF7 for this compound: O=C(COc1cc(O)c2c(=O)cc(-c3ccccc3)oc2c1)OCc1cc(-c2ccc(Cl)cc2)n(-c2ccccc2)n1
**Result** 47 µM
